- system.tested: APOL1 G1 (Homo sapiens, UniProt O14791, I384M/S342G)
- experiment.summary: Trypanosoma brucei brucei Lysis Assay Using APOL1 Recombinant Protein (AlamarBlue viability readout)
- Format: cell-based
- measurement.setup: Trypanosome Assay; read-out: Trypanosome Assay Max Activity (%)
Listed here are molecules together with their documented Emax.
parameter.measured: Emax (%)

molecule: COc1ccc([C@@H]2C[C@]3(C[C@H](C)N2)OCCc2cc(Cl)sc23)c(F)c1 (racemic) [Compound 44]
parameter.measured: Emax
observed: 106
//
molecule: C[C@@H]1CC2(C[C@@H](c3cn(C)nn3)N1)OCCc1cc(Cl)sc12 (single isomer, unassigned) [Compound 7]
parameter.measured: Emax
observed: 92
//
molecule: C[C@H]1CC2(C[C@@H](c3cn(C)nn3)N1)OCC(C)(C)c1sc(C(F)(F)F)cc12 (stereo in doubt) [Compound 16]
parameter.measured: Emax
observed: 99.5
//
molecule: C[C@H]1C[C@@]2(C[C@@H](c3cnn(CCO)c3)N1)OCCc1cc(Cl)sc12 (racemic) [Compound 56]
parameter.measured: Emax
observed: 116
//
molecule: CC(C)c1c[nH]c([C@@H]2C[C@]3(C[C@H](C)N2)OCCc2cc(Cl)sc23)n1 (racemic) [Compound 162]
parameter.measured: Emax
observed: 81
//
molecule: C[C@H]1C[C@@]2(C[C@@H](c3ccon3)N1)OCCc1cc(Cl)sc12 (racemic) [Compound 96]
parameter.measured: Emax
observed: 104
//
molecule: CCc1cc2c(s1)C1(C[C@@H](c3cn(C)nn3)N[C@@H](C)C1)OCC2 (stereo in doubt) [Compound 6]
parameter.measured: Emax
observed: 102

----------
- system.tested: UniProt:O14791
- experiment.summary: Multi-Tox Assay (MultiTox-Fluor Multiplex Cytotoxicity Assay in tet-inducible APOL1 T-REx-HEK293 cells; Table 46 does not say which APOL1 variant G0/G1/G2)
- measurement.setup: IP50 = IC50 for cell proliferation, APOL1 variant not given
pIC50: −log10 of the molar value.

molecule: C[C@H]1C[C@@]2(C[C@@H](c3cc(C4CC4)n[nH]3)N1)OCCc1cc(Cl)sc12 (racemic) [Compound 120]
system.tested: UniProt:O14791
pIC50: > 7.30
//
molecule: CNC(=O)C(C)Cn1cc([C@@H]2C[C@]3(C[C@H](C)N2)OC[C@@H](O)c2cc(Cl)sc23)nn1 (stereo partly drawn) [Compound 258]
system.tested: UniProt:O14791
pIC50: 6.30 to 7.30
//
molecule: Cc1nc([C@@H]2C[C@]3(C[C@H](C)N2)OCCc2cc(Cl)sc23)cn1C (racemic) [Compound 159]
system.tested: UniProt:O14791
pIC50: < 6.30
//
molecule: COCc1cc([C@@H]2C[C@]3(C[C@H](C)N2)OCCc2cc(Cl)sc23)no1 (racemic) [Compound 106]
system.tested: UniProt:O14791
pIC50: > 7.30
//
molecule: Cc1c([C@@H]2C[C@]3(C[C@H](C)N2)OCCc2cc(Cl)sc23)cnn1C (racemic) [Compound 136]
system.tested: UniProt:O14791
pIC50: 6.30 to 7.30
//
molecule: Cc1ncc([C@@H]2C[C@]3(C[C@H](C)N2)OCCc2cc(Cl)sc23)cn1 (racemic) [Compound 82]
system.tested: UniProt:O14791
pIC50: > 7.30
//
molecule: C[C@H]1C[C@@]2(C[C@@H](c3cn(Cc4ccc(CO)cc4)nn3)N1)OCC(F)(F)c1cc(Cl)sc12 [Compound 225]
system.tested: UniProt:O14791
pIC50: 6.30 to 7.30
//
molecule: COc1cccc([C@@H]2C[C@]3(C[C@H](C)N2)OCCc2cc(Cl)sc23)c1O (racemic) [Compound 166]
system.tested: UniProt:O14791
pIC50: < 6.30
//
molecule: C[C@H]1C[C@@]2(C[C@@H](C3CC3)N1)OCC(O)c1cc(Cl)sc12 (stereo partly drawn) [Compound 220]
system.tested: UniProt:O14791
pIC50: > 7.30
//
molecule: C[C@@H]1CC2(C[C@H](C)N1)OCCc1cc(CC(F)F)sc12 (single isomer, unassigned) [Compound 203]
system.tested: UniProt:O14791
pIC50: > 7.30
//
molecule: C[C@H]1C[C@@]2(C[C@@H](c3cn(CC(=O)N4CCCCC4)nn3)N1)OC[C@@H](O)c1cc(Cl)sc12 [Compound 239]
system.tested: UniProt:O14791
pIC50: 6.30 to 7.30
//
molecule: COCC(O)Cn1cc([C@@H]2C[C@]3(C[C@H](C)N2)OC[C@@H](O)c2cc(Cl)sc23)nn1 (stereo partly drawn) [Compound 226]
system.tested: UniProt:O14791
pIC50: 6.30 to 7.30
//
molecule: C[C@H]1C[C@@]2(C[C@@H](c3ccc(C(N)=O)cc3)N1)OCCc1cc(Cl)sc12 (racemic) [Compound 47]
system.tested: UniProt:O14791
pIC50: > 7.30
//
molecule: C[C@H]1C[C@@]2(C[C@@H](c3cn(Cc4ccc(O)nc4)nn3)N1)OC[C@@H](O)c1cc(Cl)sc12 [Compound 275]
system.tested: UniProt:O14791
pIC50: 6.30 to 7.30
//
molecule: C[C@H]1C[C@@]2(C[C@@H](c3cnc(C4CCOCC4)o3)N1)OCCc1cc(Cl)sc12 (racemic) [Compound 140]
system.tested: UniProt:O14791
pIC50: 6.30 to 7.30

----------
Listed here: items and their measured pIC50.
- system.tested: APOL1 (Homo sapiens, UniProt O14791)
- Sequence (O14791 whole entry S342G/I384M, form open): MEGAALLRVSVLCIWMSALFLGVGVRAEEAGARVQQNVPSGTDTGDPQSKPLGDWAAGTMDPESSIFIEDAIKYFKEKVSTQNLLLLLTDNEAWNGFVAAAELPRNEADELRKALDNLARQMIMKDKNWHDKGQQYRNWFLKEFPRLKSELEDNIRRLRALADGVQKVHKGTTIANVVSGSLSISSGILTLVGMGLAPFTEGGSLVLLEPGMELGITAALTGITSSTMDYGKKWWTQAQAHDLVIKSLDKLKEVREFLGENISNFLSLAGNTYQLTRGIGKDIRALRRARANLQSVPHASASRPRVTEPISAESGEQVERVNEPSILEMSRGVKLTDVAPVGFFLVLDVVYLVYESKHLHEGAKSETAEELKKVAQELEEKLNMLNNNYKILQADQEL
- experiment.summary: Multi-Tox Assay (MultiTox-Fluor Multiplex Cytotoxicity Assay in tet-inducible APOL1 T-REx-HEK293 cells; Table 46 does not say which APOL1 variant G0/G1/G2)
- measurement.setup: IP50 = IC50 for cell proliferation, APOL1 variant not given
pIC50: −log10 of the molar value.

compound: C#C[C@@H]1C[C@]2(C[C@H](C)N1)OC[C@@H](O)c1cc(Cl)sc12
pIC50: 6.30 to 7.30
//
compound: C[C@H]1C[C@@]2(C[C@@H](c3cc(C(F)(F)F)[nH]n3)N1)OCCc1cc(Cl)sc12 (stereo in doubt)
pIC50: > 7.30
//
compound: CC1CC2(CC(c3ccc4c(c3)oc(=O)n4C)N1)OCCc1cc(Cl)sc12 (stereo not drawn)
pIC50: > 7.30
//
compound: Cc1ccc(Cn2cc([C@@H]3C[C@]4(C[C@H](C)N3)OC[C@@H](O)c3cc(Cl)sc34)nn2)nc1
pIC50: 6.30 to 7.30
//
compound: C[C@H]1CC2(CC(c3cn(C)cn3)N1)OCC(O)c1cc(Cl)sc12 (stereo in doubt) [Compound 179]
pIC50: > 7.30
//
compound: C[C@@H]1C[C@]2(C[C@H](C)N1)OCC(O)c1cc(Cl)sc12 (mixture of isomers)
pIC50: > 7.30
//
compound: CC1CC2(CC(C3CCC3)N1)OCCc1cc(Cl)sc12 (mixture of isomers)
pIC50: > 7.30
//
compound: C[C@H]1C[C@@]2(C[C@@H](c3cn(Cc4ccc(C#N)nc4)nn3)N1)OCC(F)(F)c1cc(Cl)sc12
pIC50: > 7.30
//
compound: C[C@H]1C[C@@]2(C[C@@H](c3cn(C)nn3)N1)OCC(O)(C(F)F)c1cc(Cl)sc12 (single isomer, unassigned) [Compound 184]
pIC50: > 7.30
//
compound: C[C@H]1C[C@@]2(C[C@@H](c3cn(CC4CCS(=O)(=O)C4)nn3)N1)OC[C@@H](O)c1cc(Cl)sc12 (stereo partly drawn)
pIC50: 6.30 to 7.30
//
compound: CCC1CC2(CC(c3cn(C)nn3)N1)OCCc1cc(Cl)sc12 (stereo not drawn)
pIC50: > 7.30
//
compound: C[C@@H](CO)CCn1cc([C@@H]2C[C@]3(C[C@H](C)N2)OC[C@@H](O)c2cc(Cl)sc23)nn1
pIC50: > 7.30
//
compound: C[C@H]1C[C@@]2(C[C@@H](c3cnc(N)nc3)N1)OCCc1cc(Cl)sc12 (racemic)
pIC50: > 7.30
//
compound: Cc1cncc([C@@H]2C[C@]3(C[C@H](C)N2)OCCc2cc(Cl)sc23)c1 (racemic)
pIC50: > 7.30
//
compound: CC1CC2(CC(c3cn(C)cn3)N1)OCCc1cc(Cl)sc12 (racemic)
pIC50: > 7.30

----------
- system.tested: APOL1 G1 (Homo sapiens, UniProt O14791, I384M/S342G)
- experiment.summary: Trypanosoma brucei brucei Lysis Assay Using APOL1 Recombinant Protein (AlamarBlue viability readout)
- Type: cell-based
- measurement.setup: Trypanosome Assay; IP50 = IC50 for cell proliferation; read-out: Trypanosome Assay IP50
// reported IC50 per item

compound: C[C@H]1C[C@@]2(C[C@@H](c3cnccc3O)N1)OCCc1cc(Cl)sc12 (racemic)
system.tested: APOL1 G1 (Homo sapiens, UniProt O14791, I384M/S342G)
IC50: > 500 nM
//
compound: C[C@H]1CC2(CC(c3cn(C)cn3)N1)OCC(O)c1cc(Cl)sc12 (stereo in doubt) [Compound 179]
system.tested: APOL1 G1 (Homo sapiens, UniProt O14791, I384M/S342G)
IC50: < 50 nM
//
compound: COCc1cc([C@@H]2C[C@]3(C[C@H](C)N2)OCCc2cc(Cl)sc23)no1 (racemic)
system.tested: APOL1 G1 (Homo sapiens, UniProt O14791, I384M/S342G)
IC50: < 50 nM
//
compound: Cc1cc([C@@H]2C[C@]3(C[C@H](C)N2)OCCc2cc(Cl)sc23)no1 (racemic)
system.tested: APOL1 G1 (Homo sapiens, UniProt O14791, I384M/S342G)
IC50: < 50 nM
//
compound: Cn1cc(C2CC3(CC(C4CCC4)N2)OCCc2cc(Cl)sc23)nn1 (stereo not shown)
system.tested: APOL1 G1 (Homo sapiens, UniProt O14791, I384M/S342G)
IC50: > 500 nM
//
compound: C[C@H]1C[C@@]2(C[C@@H](c3ccc4oc(=O)n(C)c4c3)N1)OCCc1cc(Cl)sc12 (racemic)
system.tested: APOL1 G1 (Homo sapiens, UniProt O14791, I384M/S342G)
IC50: < 50 nM
//
compound: C[C@H]1C[C@@]2(C[C@@H](c3cnn(C4CCS(=O)(=O)C4)c3)N1)OCCc1cc(Cl)sc12 (stereo in doubt)
system.tested: APOL1 G1 (Homo sapiens, UniProt O14791, I384M/S342G)
IC50: < 50 nM

The reported measurements were obtained from patent US12421249B2.
